- target-or-test-system: T1, biotinylated recombinant human IL-12Rβ2 (human, UniProt Q99665 24-622, random biotinylated)
- T1 construct: Recombinant protein produced in-house; also called hIL-12RB2; human IL-12RB2
- T1 sequence: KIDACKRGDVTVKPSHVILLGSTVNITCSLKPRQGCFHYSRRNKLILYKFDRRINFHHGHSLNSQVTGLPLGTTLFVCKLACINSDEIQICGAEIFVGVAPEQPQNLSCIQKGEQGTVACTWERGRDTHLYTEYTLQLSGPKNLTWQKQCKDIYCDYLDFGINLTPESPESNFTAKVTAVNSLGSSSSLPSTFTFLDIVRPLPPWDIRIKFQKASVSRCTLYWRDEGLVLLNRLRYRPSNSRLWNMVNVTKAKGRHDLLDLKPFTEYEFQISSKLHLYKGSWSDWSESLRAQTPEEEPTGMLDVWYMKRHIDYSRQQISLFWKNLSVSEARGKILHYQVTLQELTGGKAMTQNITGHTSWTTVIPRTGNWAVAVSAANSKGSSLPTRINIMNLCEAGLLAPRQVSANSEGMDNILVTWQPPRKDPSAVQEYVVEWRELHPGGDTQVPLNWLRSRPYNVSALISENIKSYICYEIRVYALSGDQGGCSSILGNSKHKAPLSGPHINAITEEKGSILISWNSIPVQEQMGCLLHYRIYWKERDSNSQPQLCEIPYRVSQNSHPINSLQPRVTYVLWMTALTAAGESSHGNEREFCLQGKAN
- test-method-notes: ELISA, P.E., biotinylated antigen
The class of a record is decided solely by its measured ELISA hIL-12RB2/control; consult low group = under 5, middle group = from 5 up to 7, high group = 7 and over

• anti-IL-12Rβ2 VHH clone 3CRHS109 (clone ID 20430) (VHH, not shown: small tags and cut ends, periplasmic extract) VHH: QVQLQESGGGLVQPGGSLRLSCAASGFTFSTSGMHWFRQAPGKGLEWVSSIGIIVDSSYYASSVKGRFTISRDNAKNTLYLHMNSLKSEDTAVYYCSKDVTGSSRGQGTQVTVSS = low group
• anti-IL-12Rβ2 VHH clone 3CRHS2 (clone ID 20413) (VHH, not shown: small tags and cut ends, periplasmic extract) VHH: QVQLQESGGGLVQLGGSLTLSCAASGSAALIFLMSWYRQAPGKQRELVAEVSRYGSTTYADSVEGRFTISRDNAKNIVDLQMNSLKPEDTAVYYCKADQYYGDSLRSSWGRGTQVTVSS = middle group
• anti-IL-12Rβ2 VHH clone 3CRH27 (clone ID 20379) (VHH, not shown: small tags and cut ends, periplasmic extract) VHH: QVQLQESGGGLVQAGGSLRLSCTASGSIVSIYNMDWYRQAPGNEREWVASITSSGDPYYDGSAKGRFTISRDNAKMTVYLQMNSLKPEDTAVYYCKVPTEKGNYWGQGTQVTVSS = high group
• anti-IL-12Rβ2 VHH clone 3CRHS54 (clone ID 20422) (VHH, not shown: small tags and cut ends, periplasmic extract) VHH: QVQLQESGGGLVQPGGSLRLSCTASGSIVSIYNMDWYRQAPGNEREWVASITSSGDPYYDGSAKGRFTISRDNAKMTVYLQMNSLEPEDTAVYFCKVPTEKGNYWGQGTQVTVSS = high group

Query string: Form field 'band' for anti-IL-12Rβ2 VHH clone 3CRH25 (clone ID 20378) (VHH, not shown: small tags and cut ends, periplasmic extract) VHH: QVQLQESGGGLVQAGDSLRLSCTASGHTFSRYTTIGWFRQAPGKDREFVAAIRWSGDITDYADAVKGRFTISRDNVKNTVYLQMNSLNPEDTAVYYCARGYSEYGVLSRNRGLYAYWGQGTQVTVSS
Result string: middle group

Query string: Hi there! Could you help me figure out the category for anti-IL-12Rβ2 VHH clone 3CRH18 (clone ID 20377) (VHH, not shown: small tags and cut ends, periplasmic extract) VHH: QVQLQESGGGLVQPGGSLRLSCTASGNIVSIYNMDWYRQAPGNQREWVASITSSGDPYYDGSAKGRFTISRDNAKMTVYLQMNSLRPEDTAVYYCKVPTEKGNYWGQGTQVTVSS please?
Result string: middle group

Query string: For anti-IL-12Rβ2 VHH clone 3CAH28 (clone ID 20356) (VHH, not shown: small tags and cut ends, periplasmic extract) VHH: QVQLQESGGGLVQSGASLRLSCAASERTLSGYAMGWFRQAPGKEREFVAAIRWSGSSTYYAESVEGRFTISRDNAKNTVYLQMNILKPEDTAVYYCAAGSDYADEYDYWGQGTQVTVSS , which ELISA hIL-12RB2/control bin applies?
Result string: high group

Query string: # bin label for anti-IL-12Rβ2 VHH clone 3CRHS128 (clone ID 20432) (VHH, not shown: small tags and cut ends, periplasmic extract) VHH: QVQLQESGGGLVQPGGSLRLSCAASGFTFSTSGMHWFRQAPGKGLEWVSSIGATVDNSYYASSVKGRFTISRDNAKNTLYLLMNSLKSEDTAVYYCSKDPTGSSRGQGTQVTVSS
Result string: low group

Query string: Determine which band this binder sits in: anti-IL-12Rβ2 VHH clone 3CAHS150 (clone ID 20403) (VHH, not shown: small tags and cut ends, periplasmic extract) VHH: QVQLQESGGGSVQAGGSLRLSCAASGRTINAYVMGWFRQAPGKEREFVAAISGSGGSTYYADSVKGRFTISRDNAKNTVNLQMDNLRSEDTDVYYCAATYESVYLQNPGQYDYWGQGTQVTVSS
Result string: low group

Query string: Which category does the recorded ELISA hIL-12RB2/control put anti-IL-12Rβ2 VHH clone 3CAHS53 (clone ID 20397) (VHH, not shown: small tags and cut ends, periplasmic extract) VHH: QVQLQESGGGLVEPGGSLRLSCAASGRTINAYIMGWFRQAPGKEREFVAAVSGSGGSTYYADSVKGRFTISRDSAKNTVNLQMDNLRSEDTDVYYCAATYESVYLQNPGQYDYWGQGTQVTVSS in?
Result string: middle group

Query string: Dear colleague, I would appreciate it if you could identify the bin for anti-IL-12Rβ2 VHH clone 3CRH43 (clone ID 20382) (VHH, not shown: small tags and cut ends, periplasmic extract) VHH: QVQLQESGGGSVQPGGSLRLSCAASGFTFSTSGMHWFRQAPGKGLEWVSSIGIIVDSSYYASSVKGRFTISRDNAKNIVYLQMNSLKSEDTAVYYCSKDPTGSSRGQGTQVTVSS and reply at your convenience.
Result string: low group
